subject of test: UniProt:P51639
recorded endpoint: Ki (nM)
Answer format: numeric, nM implied, no suffix.

Return reported Ki for target or system UniProt:P51639, item CC[C@H](C)C(=O)O[C@H]1CCC=C2C=C[C@H](C)[C@H](CC[C@@H]3C[C@@H](O)CC(=O)O3)[C@H]21 [MEVASTATIN] .
1.4

###

Item-by-item account of IC50
subject of test: 3-hydroxy-3-methylglutaryl-coenzyme A reductase (Rattus norvegicus, UniProt P51639)
Sequence (P51639 whole entry): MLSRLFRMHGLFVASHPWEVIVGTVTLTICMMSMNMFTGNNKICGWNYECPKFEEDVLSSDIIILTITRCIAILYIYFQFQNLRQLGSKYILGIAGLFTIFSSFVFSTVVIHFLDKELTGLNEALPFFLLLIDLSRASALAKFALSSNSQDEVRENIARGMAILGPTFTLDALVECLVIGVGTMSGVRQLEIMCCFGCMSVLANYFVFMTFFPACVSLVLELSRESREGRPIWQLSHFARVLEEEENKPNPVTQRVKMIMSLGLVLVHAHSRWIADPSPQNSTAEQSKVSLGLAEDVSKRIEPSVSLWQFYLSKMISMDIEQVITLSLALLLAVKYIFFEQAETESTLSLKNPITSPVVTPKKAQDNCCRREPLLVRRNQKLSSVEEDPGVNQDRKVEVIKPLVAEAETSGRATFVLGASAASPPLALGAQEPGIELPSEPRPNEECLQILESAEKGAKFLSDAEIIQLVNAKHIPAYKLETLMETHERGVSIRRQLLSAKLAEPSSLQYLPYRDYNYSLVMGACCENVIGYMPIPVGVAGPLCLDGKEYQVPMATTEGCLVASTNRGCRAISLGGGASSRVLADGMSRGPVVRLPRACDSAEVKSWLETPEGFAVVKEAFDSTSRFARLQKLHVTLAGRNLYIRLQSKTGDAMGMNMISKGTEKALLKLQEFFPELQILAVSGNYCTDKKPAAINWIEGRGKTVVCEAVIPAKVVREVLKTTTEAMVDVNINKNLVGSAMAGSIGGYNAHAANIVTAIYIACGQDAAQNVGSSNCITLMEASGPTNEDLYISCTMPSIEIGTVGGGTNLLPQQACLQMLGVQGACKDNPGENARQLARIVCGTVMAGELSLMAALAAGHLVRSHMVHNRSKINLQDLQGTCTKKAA
Answer format: numeric, µM implied, no suffix.

Consider the worked cases shown below.
{"columns": ["compound", "IC50 [µM]"],
 "data": [
  ["CC[C@H](C)C(=O)O[C@@H]1CCC=C2C=C[C@@H](C)[C@@H](COC(=O)C[C@H](O)CC(=O)O)[C@@H]21", 25],
  ["CC[C@H](C)C(=O)O[C@@H]1CCC=C2C=C[C@@H](C)[C@@H](COC(=O)CCCC(=O)O)[C@@H]21", 110],
  ["CC[C@H](C)C(=O)O[C@H]1CCC=C2C=C[C@H](C)[C@H](CC[C@H]3C[C@H](O)CC(=O)O3)C21 (stereo partly specified)", 2],
  ["CC[C@H](C)C(=O)O[C@@H]1CCC=C2C=C[C@@H](C)[C@@H](CC[C@@H]3C[C@@H](O)CC(=O)O3)[C@@H]21", 10],
  ["CC[C@H](C)C(=O)O[C@@H]1CCC=C2C=C[C@@H](C)[C@@H](CC[C@H]3C[C@@H](O)CC(=O)O3)[C@@H]21", 79]
]}

Item CC[C@H](C)C(=O)O[C@H]1CCC=C2C=C[C@H](C)[C@H](CCC(=O)C[C@@H](O)CC(=O)O)[C@H]21 : provide IC50
0.032
